- Experiment: soluble on expression in E. coli; label from the status in PepcDB or PDB records
Test readout: soluble on expression in E. coli

# Biopolymer sequence, Assay value
measured = [
    ("MGSDKIHHHHHHMPHYDVVDTSNNNGIMTVANWRSMKKYGVKAMIAKLSEGTYFTDQTAKPSIRNAITAGLHVNGYHFARFTTETGAKAEAQMAARSALKAGLGKSSVIVLDFEATNSGWNQNSKIVKAWINEVHRMGYPKTDVYTMGSWINSVPLNNSGRGGWVANYPYNPSGFKLYTGYNGWQWTSSMHFPGCYGGFDVSQMYSNYYYGTTTHVAKPKKAIYYRYNPKMIYARTPINRYKDVAFKHKVDNFPAGTVFAIAKVINYGKITRFQLANGYYITSNQTNVNRLYYSVDGGVKRVKSVRGTHRYKDKALKHVVDWQPAETEFDVAKIVKYGDTTRIQLANGLFISGNKKINKFVK", "not soluble"),
    ("MSLPDEQGRRTVTLETAEEALLKRAVVYDHDGDEHYHVASALIKSIRGSDPDAALYWLARMLYAGEDPRFIARRLVISAAEDIGLADPQALVIAQAAADAVSFIGMPEGRIPLAEAVVYLACAPKSNSAYLAIDRALAVVEREKTPPVPNHLKDTGYGSDQRLGYGKGYQYPHDFPGAWVEQRYLPEGVDGPFWEPKGYGREAELARLLRERRGREGHHHHHH", "soluble"),
    ("NDVKRALEVEEINKLLNEVPLKRLPEDLVRCRVWANLMFQLRGMPFVDLAFLHKSDLKGNTLSYRRHKTGGQMIVDIPPTAMELIRQYQNTDCNSPYLFPILSGTKTGEELYIEYQQALRIMNYNLGRLARRCGVITKVSSYTTRHTWATLAKYCNFSEQLICEAFGHSSVKVTETYLKNFKYEEIKKANDAI", "not soluble"),
    ("SAQEEGGSLPEVRARVRAAHGIPDLAQKLHFYDRWAPDYDQDVATLLYRAPRLAVDCLTQALPGPPHSALILDVACGTGLVAAELRAPGFLQLHGVDGSPGMLEQARAPGLYQRLSLCTLGQEPLPSPEGTFDAVLIVGALSDGQVPCNAIPELHVTKPGGLVCLTTRTNWSNLQYKEALEATLDRLEQAGMWEGLVAWPVDRLWTAGSWLPPSWWWYPASLPRMASSPALSTCTESGRRPRLRK", "soluble"),
    ("MLPSTMFLVHLPLSTNRLHCLRNTSLESCLCSFVHLNHPLHISDPVILISLHEAVRFSFAFSFPRGTLSIAYCLMSSVSTSSEAIMSTELLANYCHSSLHVCICISSFPNETGNHDSFPGAVVSISDQPTDQCKLAAKELPLRNLLECRFFDCMGEEDLINLGVIGTER", "soluble"),
]

Read the next record carefully.
**Query** Could you tell me which soluble on expression in E. coli is on file for `MGSDKIHHHHHHMLSVNRIVISAAGGGKTTRVVDQALACEQGQGATALITYTRNNVREIQLKAYERTRTIPSHVEVISWYSFLLRELARPYRSAMHASRVDGIHWVEGKSVPYIPEARTSGHYFFDGSRIYSDKIAKFVCECDRRSGGAIMRRLKQRFRHIIIDEIQDMAGYDLDLLELILKAGVPVTFVGDHRQATFATNNASKNKVFSGPAIIKKFELWKKQGLVEIEYETHTHRCNQTIADLGDGFFPNEPKTVSRNDKVTGHDGVFLVSSADVGEYMKRFAPQVLRYSAATNCDLDEAMNFGESKGLTFERVLIYPHGPARKWLASGDIRHVEKSLTKMYVAVTRARYSVAFVHDGKICSVAATKWVPG` ?
**Result** not soluble

FYI, the data here is from the DeepSol protein solubility set.
